Exercise: for every item that follows, state its recorded chromatographic logD.
- experiment.notes: physchem
- assay.setup: pH 7.4

QUERY: Record request: chromatographic logD value, item Cc1nc(C(=O)O)c(NC(=O)c2c(F)c(F)c(F)c(F)c2F)o1 [Compound 38]
RESULT: 0.78

QUERY: Entry CCOC(=O)c1nc(C(C)C)oc1NC(=O)c1c(F)c(F)c(F)c(F)c1F [Compound 31] : reported chromatographic logD = ?
RESULT: 2.8

QUERY: Form field: reported chromatographic logD of CCOC(=O)c1nc(N(C)C)oc1NC(=O)c1c(F)c(F)c(F)c(F)c1F [Compound 32]
RESULT: 2.4

QUERY: Fill in the blank: the reported chromatographic logD of COC(=O)c1ccncc1NC(=O)c1c(F)c(F)c(F)c(F)c1F [Compound 18] is ____.
RESULT: 2.8

QUERY: # get_value(readout='chromatographic logD', item= COC(=O)c1c(C)noc1NC(=O)c1c(F)c(F)c(F)c(F)c1F [Compound 22] )
RESULT: 1.5

QUERY: Param item = CCOC(=O)c1nc(C)oc1NC(=O)c1c(F)c(F)cc(F)c1F [Compound 28] ; retrieve measured chromatographic logD.
RESULT: 1.7

QUERY: Name the reported chromatographic logD value associated with the compound Cc1nc(C(=O)N(C)C)c(NC(=O)c2c(F)c(F)c(F)c(F)c2F)o1 [Compound 40]
RESULT: 1.4

QUERY: # input compound: CCOC(=O)c1nc(C)oc1NC(=O)c1c(F)cc(F)c(F)c1F [Compound 27] ; wanted: its chromatographic logD
RESULT: 1.9

QUERY: Looking for the measured chromatographic logD of COC(=O)c1cnccc1NC(=O)c1c(F)c(F)c(F)c(F)c1F [Compound 16] , can you help?
RESULT: 3.2

QUERY: Need chromatographic logD of CCOC(=O)c1c(NC(=O)c2c(F)c(F)c(F)c(F)c2F)sc(C(N)=O)c1C [TP4, reference compound] , thanks.
RESULT: 3.4

QUERY: Given COC(=O)c1c(NC(=O)c2c(F)c(F)c(F)c(F)c2F)sc2c1CCCCC2 [TP2, reference compound] , state its recorded chromatographic logD.
RESULT: 4.6
